- methodDescription: soluble fraction after stress (log2 fold change); higher = more stays soluble; pooled small domains, quantitative proteomics
- assayContext: stress: 50 degC
Exercise: state measured soluble fraction (log2) for each of the sequences provided.

1) HMSQIILSARSGHAALRHRLGELGYTFADKEFDDIYERFLEVADQKKEVYDEDLESIVQERQRD : 0.0537

Look up soluble fraction (log2) for the entries below, preserving their order.
1. HMGSVDMVYGDHKINSEHMDLSFKNQTAVLYDKVNYKSSLSMLSADKILVNFLNKYTKIEMNDENNNILIQ
2. HMLKETGVITASVLNVREDIGTSSNIVAQLKKGMEVNILESRAIAGSETWYRIDAGSIKGWIFGDYI
3. HMILNPQELGERIRKLRLKRNKTQSYFADMLYISSSYLALIESGKRVPNLDLLIHIAKFTDVTLDYLVFG
4. HMATTPEETILEYINKNNRISKQEIADLMGITRDGVSYHIKKLRKNGLLEWIGSPSNGHWEIIE

## Output
1. 0.059
2. -3.62
3. -1.22
4. 0.274

====

- methodDescription: soluble fraction after stress (log2 fold change); higher = more stays soluble; pooled small domains, quantitative proteomics
- assayContext: stress: 50 degC
Exercise: state measured soluble fraction (log2) for each of the sequences provided.
One number for each entry.

1. HMKHKGILTTWNDDRGFGFITPKEGKEPVFVHISAFARGQGRPVLNASLTYRLVRDDQQRPRAEAVRL : -1.15
2. HMGISSESIKTFIREIVENEDPKAPLSDQTMVELLAERGIDISRRTVAKYRDEMNLPSSSKRKR : 0.462
3. HMSAQDLIVKTDATQVEARVLEISPEQIRYKRFSNPDGPTYVLPVDAVDYIRYANGETDSFR : -0.0039
4. HMDGASVQRITELTATLNRYRHEYYNLAKPSVSDAVYDRLFDELAALEQKTGIVLSNSPTQTV : -0.247

Look up soluble fraction (log2) for the entries below, preserving their order.
1. HMEGVTVPDVTRISLDEAEELLTSYGLRFEVADRRANSAFPGNYVIDQAPSAEVIVKPNRKIYLTVNAA
2. HMKPDDDMLLKILTKLFIQKQFVINSKDIFQYILKNTNRTYENIINIVNRLDTLSIEKKRQLTIPLIKEI
3. HMDILPEGNYKVNYDVIDEVGNIVANKNDIVVTEKSIKPLNTILGIDLYEVIHSQTGKYFTINGDNLTN
4. HMAVKNAQIDVQQFFYSKSGEVDFGRKIKAIQSHFTPERLQSFTAAVPPSQWVSQLQVMWDSL

## Output
1: -0.134; 2: -0.457; 3: -0.00162; 4: -1.39

====

- methodDescription: soluble fraction after stress (log2 fold change); higher = more stays soluble; pooled small domains, quantitative proteomics
- assayContext: stress: 50 degC
observedProperty: soluble fraction (log2)

Worked examples follow.
1. HMDKSPMIGTAEYEGVLYWRQTKDNGATWEWITDKNGDKMPVSGPAPAVGIDKDGYWTVNGESTGVLAKD : 0.168
2. HMQVLLTRREKEILKLIAEGLTSAEIGKRLFISTTTVDTHRKHLLEKLKAGNTAILIKTAVQLDLI : -1.26
3. HMDLQHQLTPRLKRLRLSGILETLEVRNQQAIAEKWSYVEFLTRLAEDEVERRDHKQLTLRLR : -0.499
4. HMSADEVSQQLTSEQTKSKSYQALLQAYAAYQQKSFDDAALELQNVQQDVLSDSQKTIYNTISQAVNS : 0.185
5. HMKIEEIAYSTFISMLDKGEVSKVELKDNLIYIETKADDKTIYTTGRMEDPDLTNRLIEAGVDFTEIE : -0.317

Look up soluble fraction (log2) for the entries below, preserving their order.
1. HMETNFTGTRIATARKAKNMSQAQLAQQLFISPQAVGKWERGESIPDIVTVVKLADVLGVDLNYFSE
2. HMQMSDTSMIRDLVLQVLAENPQSIEDFKNGKDRAVGFLVGMVMKKSQGKANPQITNQMIVEELKK
3. HMVPAMEVALEDARRAIEQVVSGERTSVQLSSQEAMIRKLQHQMAKDANLFSRSSGVEPQRRVTIYTN

## Output
1. -0.12
2. -0.104
3. 0.0136
